- Tested on: Acinetobacter baumannii (ATCC 1794)
- PROTOCOL DETAILS: MIC broth microdilution, A. baumannii 1794
- Format: cell-based
- MEASUREMENT CONTEXT: Table 1A; in µM
Marks after values point to notes of the source that are not given here.
MEASUREMENT NAME: MIC A. baumannii 1794

# compound "CCCCCCCCCCCCCCCCn1cc[n+](Cc2cccc(F)c2)c1C.[Br-]" ; its MIC A. baumannii 1794 = 25

MIC A. baumannii 1794 reading for "CCCCCCCCCCCCCCCCn1cc[n+](Cc2ccccc2C[n+]2ccn(CCCCCCCCCCCCCCCC)c2C)c1C" : >100

Note to self: MIC A. baumannii 1794 recorded for "CCCCCCCCCCCCCCCCn1cc[n+](Cc2cccc(OC)c2)c1C.[Br-]" was >100*

Documented MIC A. baumannii 1794 of "CCCCCCCCCCCCCCCCn1cc[n+](Cc2ccc(C(C)(C)C)cc2)c1C.[Br-]" : >100

====

- Test system: VRE ATCC 700221 biofilms
- PROTOCOL DETAILS: Calgary Biofilm Device assay (MBC/MBEC), VRE 700221
- Type: cell-based, Enterococcus faecium
- MEASUREMENT CONTEXT: Table 2A; CBD assay
Marks after values point to notes of the source that are not given here.
MEASUREMENT NAME: VRE MBEC

The compound identified as "CCCCCCCCCCCCCCCCn1cc[n+](Cc2cccc(F)c2)c1C.[Br-]" registered its VRE MBEC at 11.7^a μM

Form: compound = "CCCCCCCCCCCCCCCCn1cc[n+](C)c1C.[I-]" ; VRE MBEC = 3.9/3.9 μM

// VRE MBEC value for "CCCCCCCCCCCCCCCCn1cc[n+](CCO)c1C.[Br-]" : 3.9 µM

Just so you know, measured VRE MBEC for CCCCCCCCCCCC[N+](C)(C)CC[N+](C)(C)CC[N+](C)(C)CCCCCCCCCCCC [QAC-10, reference compound] came out at 3.0^a μM

Lab note: "CCCCCCCCCCCCCCCCn1cc[n+](Cc2ccc(F)cc2C(F)(F)F)c1C.[Br-]" gave VRE MBEC of 3.0^a μM

====

- System: Acinetobacter baumannii (ATCC 1794)
- PROTOCOL DETAILS: MIC broth microdilution, A. baumannii 1794
- Assay type: cell-based
- MEASUREMENT CONTEXT: Table 4
Would you kindly list MIC A. bau. 1794 for each of these compounds?

So, "CCCCCCCCCCCCCCCCn1cc(-c2ccccc2)[n+](C)n1.[I-]" ? Its MIC A. bau. 1794 was 12.5 µM

Per the records, this compound ( "CCCCCCCCCCCCCCCCn1cc[n+](Cc2ccccc2C[n+]2ccn(CCCCCCCCCCCCCCCC)c2C)c1C.[Br-].[Br-]" ) has MIC A. bau. 1794 equal to >100 µM

For record "CCCCCCCCCCCCCCCCn1cc[n+](CCCC)c1C.[Br-]" the listed MIC A. bau. 1794 is 12.5 µM

According to the records, this compound "CCCCCCCCCCCCCCCCn1cc[n+](Cc2ccc(C(C)C)cc2)c1C.[Br-]" displays MIC A. bau. 1794 of >100 µM

Memo: "C=CC[n+]1ccn(CCCCCCCCCCCCCCCC)c1C.[Br-]" , reported MIC A. bau. 1794: 9.38a micromolar

Documented MIC A. bau. 1794 of "CCCCCCCCCCCCCCCCn1cc[n+](Cc2cccc(OC)c2)c1C.[Br-]" : >100 µM

====

- Tested on: SA-129 (clinical isolate)
- PROTOCOL DETAILS: MIC broth microdilution, SA-129
- Type: cell-based, Staphylococcus aureus
- MEASUREMENT CONTEXT: Table 1B
- Experimental: The minimum inhibitory concentration (MIC) for each tested compound was determined by the broth microdilution method as recommended by the Clinical and Laboratory Standards Institute (CLSI). In a 96-well plate, eleven two-fold serial dilutions of each compound were made in a final volume of 100 μL Luria Broth. […] (MIC values were supported by spectrophotometric readings at OD600). […]
MEASUREMENT NAME: MIC (µM)
// units = µM; emit number, no label

CCCCCCCCCCCCCCCCn1cc[n+](Cc2cccc(F)c2)c1C.[Br-] [Compound 18] yielded MIC of 3.13

Summary for this compound, CCCCCCCCCCCCCCCCn1cc[n+](Cc2cccc(OC)c2)c1C.[Br-] [Compound 17] : MIC is 3.13

The recorded MIC for entry CCCCCCCCCCCCCCCCn1cc(-c2ccccc2)[n+](C)n1.[I-] [Compound 30] equals 1.56

The compound CCCCCCCCCCCCCCCCn1c(C)[n+](Cc2ccccc2)c2ccccc21.[Br-] [Compound 25] showed MIC equal to 3.13

Record summary for CCCCCCCCCCCCCCCCn1cc[n+](CCCC)c1C.[Br-] [Compound 9] : reported MIC = 1.56

The reported value for CCCCCCCCCCCCCCCCn1cc[n+](CCO)c1C.[Br-] [Compound 11] in terms of MIC is 1.56

MIC recorded for this compound, CCCCCCCCCCCCCCCCn1cc[n+](C)c1C.[I-] [Compound 8] , is 1.56

====

Please go through the items and note down their MIC A. baumannii 1794.
- Test system: Acinetobacter baumannii (ATCC 1794)
- PROTOCOL DETAILS: MIC broth microdilution, A. baumannii 1794
- Type: cell-based
- MEASUREMENT CONTEXT: Table 1A; in µM
Lab note: jot down the number only; don't add units.

// sample CCCCCCCCCCCCCCCCn1cc[n+](CCO)c1C.[Br-] [Compound 11] , its MIC A. baumannii 1794 was 6.25

What the record says about CCCCCCCCCCCC[N+](C)(C)CC[N+](C)(C)CC[N+](C)(C)CCCCCCCCCCCC [QAC-10, reference compound] : MIC A. baumannii 1794 is 6.25

====

Can you tell me MIC for the items I'm about to list?
- Test system: MRSA-1 (clinical isolate)
- PROTOCOL DETAILS: MIC broth microdilution, MRSA-1
- Assay type: cell-based, Staphylococcus aureus
- MEASUREMENT CONTEXT: Table 3
Express it in µM; write the number only.

Entry "CCCCCCCCCCCCCCCCn1c(C)[n+](Cc2ccccc2)c2ccccc21.[Br-]" : MIC on MRSA-1 (clinical isolate) = 12.5

Entry "CCCCCCCCCCCCCCCCn1cc[n+](C)c1C.[I-]" under MRSA-1 (clinical isolate) had MIC of 1.56

The compound "CCCCCCCCCCCCCCCCn1cc[n+](Cc2cccc(F)c2)c1C.[Br-]" on MRSA-1 (clinical isolate): MIC was 3.13

The recorded MIC with MRSA-1 (clinical isolate) for "CCCCCCCCCCCCCCCCn1cc[n+](CCCC)c1C.[Br-]" was 1.56

====

- System: MRSA-2 biofilms
- PROTOCOL DETAILS: Calgary Biofilm Device assay (MBC/MBEC), MRSA-2
- Assay type: cell-based, Staphylococcus aureus
- MEASUREMENT CONTEXT: Table 2A; CBD assay
MEASUREMENT NAME: MRSA-2 MBC (µM)
Reply with just the number (in µM).

The measured MRSA-2 MBC associated with "CCCCCCCCCCCCCCCCn1cc[n+](C)c1C.[I-]" reads 11.7

The recorded MRSA-2 MBC for entry "CCCCCCCCCCCCCCCCn1cc[n+](CCO)c1C.[Br-]" equals 11.7

MRSA-2 MBC recorded for this compound, "CCCCCCCCCCCCCCCCn1c(C)[n+](Cc2ccccc2)c2ccccc21.[Br-]" , is 250

Entry CCCCCCCCCCCC[N+](C)(C)CC[N+](C)(C)CC[N+](C)(C)CCCCCCCCCCCC [QAC-10, reference compound] — recorded MRSA-2 MBC = 31.3

====

- Tested on: MRSA BAA-44
- PROTOCOL DETAILS: MIC broth microdilution, MRSA BAA-44
- Format: cell-based, Staphylococcus aureus
- MEASUREMENT CONTEXT: Table 3
Marks after values point to notes of the source that are not given here.
MEASUREMENT NAME: MIC MRSA BAA-44

Note to self: MIC MRSA BAA-44 recorded for "CCCCCCCCCCCCCCCCn1cc(-c2ccccc2)[n+](C)n1.[I-]" was 4.69^a μM

The measured MIC MRSA BAA-44 associated with "CCCCCCCCCCCCCCCCn1cc[n+](Cc2cccc(OC)c2)c1C.[Br-]" reads 2.35^a μM

MIC MRSA BAA-44 in this record for "CCCCCCCCCCCCCCCCn1cc[n+](CCCC)c1C.[Br-]" : 2.35^a μM

Entry "CCCCCCCCCCCCCCCCn1cc[n+](Cc2cccc(F)c2)c1C.[Br-]" , MIC MRSA BAA-44 reported as 2.35^a μM

Item: CCCCCCCCCCCC[N+](C)(C)CC[N+](C)(C)CC[N+](C)(C)CCCCCCCCCCCC [QAC-10, reference compound] | MIC MRSA BAA-44: 2.35^a μM
